Entries and their apparent KD of K4 kissing-loop reporter
System: K4 kissing-loop RNA reporter;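 note: bound reporter read as fluorescence of individual clusters on recovered sequencing chips by microscopy, with normalized cluster intensities fitted with a binding model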
Test: apparent KD of K4 kissing-loop reporter; higher = weaker reporter binding
Details: Eterna round: R107; input ligand: FMN 200 uM
Readout Type: apparent KD of K4 kissing-loop reporter (nM)

UGUUGAGUGAUGUUCGAUGUAGUUCAUUCAGAGGAUAUAGGGUGGGCUAGAAGGCUGAAAAGUGCUUCGAGUGAUGUUCGAAGAU [Exclusion FMN A GF 7]	77.3
GGCAGUGAUGUUGCCUAAGCAACGCAUGCAGAGGAUAUUCGUUCGGGAAGAAGGCUGCAGCGUUCUCUCGCGAGUGAUGUUCGCG [Same State FMN A GF 23]	182
GCUAAGGAGUGAUGUUCCAAGUGAUGUUAACGAGGACCGGUACGGCCGCCACUCGAUACGGCCGGACCGUAAGAUAAACUACAGC [Same State - Tryptophan A (Freestyle 6)]	206
GGUAGCAUGGCGGCCGCCACUCGGACGACAUAGCACAUGUCGACCAGUGAUGUUGGUUCAAACACGAGGACCGGGCCAUGCUACC	724
AGCUCAGAGUGACUCGAUAAGAGUCACAAACGAGGACCGGUACGGCCGCCACUCGAAAUAACGAGAGUGAUGUUCUCACUGAGCA [FiskerMod 11 - Jieux - Same State Tryptophan A]	1150
UGACUGGACUGAAGGAGCGCUAAAACUCCUAGUGAUGUUAGGAAAACGAGACAAAGUCUCGAGCAGGUAGGUCGCAGUCUAGUCU [ArgBS 21 #SwitchBubble #StaticStem]	142

###

System: MS2 coat protein
Assay: apparent KD of MS2 coat protein, switch ON state; designed switch direction (-1 OFF switch, 1 ON switch): -1; higher = weaker reporter binding
Settings: FMN input: 0 or 200 uM; Eterna round: R93 (includes R88 designs)
Entries and their apparent KD of MS2 coat protein
Readout Type: apparent KD of MS2 coat protein (nM)

CCUAUGUCAGGAUAUCAGUAGUAAAAAAAAAAAAUUACUACUGAGAAGGGACAUGAGGAUCACCCAUGUCACUU [EX4 311: Super Stable 11]	28.5
AAGAAUCGAGGAUAUACAAAAUAAAAGAAAAGAAAGAAAGAACAUGAGGAUCACCCAUGUAGAAGGCGAAAGAA [Khaneferre Sobekhotep IV]	30.3
AAGGGACAUGAGGAUCACCCAUGUCAGGAUAUGCUAUGGAAAUAAAAAAUAAAACAUAGCAGAAGGGACACCAA [Mat - Exclusion 1 - Eli mod - D49]	24
AGUCAUACAGGAUAUACAUGAGGAUCACCCAUGUAUAUCCAAAAAAGGUGAUCCUCAUGUAGAAGGGUAUGACA [EX3 202: Super Stable 2]	13.7
AAGACUACAGGAUAUACAUGAGGAUCACCCAUGUAACUGACAAGUAGAGGACGGAGAAGUAGAAGGGUAGUCAA [Ruby 35]	13.6
UCAGGUGGAGGAUAUACAGCUCGAUCCUGGAAUAAAACGGCACAUGAGGAUCACCCAUGUAGAAGGCCACAAAA [Texeussoat]	18.9
AAAAAGUCAGGAUAUGCAGAAAAAAAAACGAAAAAAAAACUGCAGAAGGGACAUGAGGAUCACCCAUGUUAAAA [Ex 4 May 14]	30.8
AAAAAACAUGAGGAUCACCCAUGUGAGGAUAUGCAAAAGAAAAGAAAAGAAAGAAGAAGCAGAAGGCACAAGAA [Djedefra]	29.4
AAGUUAUUAGGAUAUACUUGUGCGAUUAAUACGUUGAUAUUACAUGAGGAUCACCCAUGUAGAAGGAAUAAAAA [JR_Exc002_Sub412]	24.4
AAAACACAUGAGGAUCACCCAUGUGAGGAUAUCGUGCAGUAGACGAAAGUCUACUGCACGAGAAGGCACAAGGA [Tweaking Brourd]	33
AAAAAUGGAGGAUAUACAUGAGGAUCACCCAUGUGUAACUAUACUAAGCACAAACCACGUAGAAGGCCAAAAAA [Gilly Gone Silly 11 - Jieux - Exclusion 3]	51.7
AGGAAACAUGAGGAUCACCCAUGUGAGGAUAUAGAAAAGAAAAGAAAAGAAAGAAGAACUAGAAGGCACAAGAA [Neheb]	31.2
AAAAAGUUAGGAUAUACAUGAGGAUCACCCAUGUACAUAAAUGGAGAAAAAAACAGUAGUAGAAGGGACAAAAA [EX2 Malc#11]	23.8
AACAGUACAGGAUAUACAUGAGGAUCACCCAUGUAGGGAUAAAGUGGCGUACCACAAAGUAGAAGGGUACUGGA [Moding Maslow revisited (73) 4]	30.6
GAUUAGUGAGGAUAUACAUGAGGAUCACCCAUGUGUAAAAAAAAACGCAAAAAAGAAUGUAGAAGGCACUAAAG [Mat - Exclusion 3 - Mayanna mod - D103]	21.6
AAAUACUAAGGAUAUACAUGAGGAUCACCCAUGUACAAACCCGUGGAACGGAUCCUUAGUAGAAGGUGGACGAA [Onquerar]	13.6
AGGAAACAUGAGGAUCACCCAUGUCAGGAUAUAGGAAAGAAAAGAAAAGAAAGAAGAAUUAGAAGGGACAAGAA [King Scorpion]	23.5
UAAAACAGAGGAUAUACAUGAGGAUCACCCAUGUAAAAAUGUAGAAGGCUGAAAUAAAUAAGAAGGAAAUAAAA [Meechl Ex3 R2 m1]	24.8
AAACUGGUAGGAUAUGCUAGGGCGAUUAAUACGCCGAUAGUACAUGAGGAUCACCCAUGUAGAAGGGCCAGAAA [Mat - Exclusion 2 - JL mod - D65]	30.8
AACAAACAUGAGGAUCACCCAUGUCAGGAUAUGCAAACAACAAACAACAAACAACAAAGCAGAAGGGACAACAA [e1-3]	19.9
AGGGAGUGAGGAUAUGCGAAAGAAAAAGAAGGAAAAAAAGAGCAGAAGGUACAUGAGGAUCACCCAUGUAAAAA [milkweed 8]	27.9
AACAAACAUGAGGAUCACCCAUGUCAGGAUAUGCAAACAACAAACAACAAACAACAAAGCAGAAGGGACGACAA [63%, Olong, 3]	21.7
GAAAAGGUAGGAUAUACGAAAAAAAAGGGUAAAAUAAAUAAACAUGAGGAUCACCCAUGUAGAAGGACCAAAAG [Mat - Exclusion 2 - Tesla mod - D39]	30.1
AAAAAACAUGAGGAUCACCCAUGUGAGGAUAUGUAAAAUAAAAUAAAAAUAAAGAAAAGCAGAAGGUAUAUGAA [Amethyst 65]	20.4
AAAAAAGGAGGAUAUACGUACAUGUCGAAAGACGUGAAGGGACAUGAGGAUCACCCAUGUAGAAGGCCUAAAAA [Mat - Exclusion 2 - JL mod - D86]	34.8

Taken from the supplement of paper PMC9170038.
